Sourced from patent EP0951295B1

# maps each entry to its pIC50
target: T1, integrin αvβ3 (vitronectin receptor), purified and immobilized on microtiter wells (UniProt P06756 31-1048; P05106 27-788); experiment: solid-phase competition: peptide against fibrinogen (FG) on immobilized αvβ3; individual assay
T1 construct: Purified integrin coated at 50 ng per well; also called αvβ3 receptor; vitronectin receptor (αvβ3)
T1 sequence (P06756 31-1048, form in doubt, chain 1 of 2): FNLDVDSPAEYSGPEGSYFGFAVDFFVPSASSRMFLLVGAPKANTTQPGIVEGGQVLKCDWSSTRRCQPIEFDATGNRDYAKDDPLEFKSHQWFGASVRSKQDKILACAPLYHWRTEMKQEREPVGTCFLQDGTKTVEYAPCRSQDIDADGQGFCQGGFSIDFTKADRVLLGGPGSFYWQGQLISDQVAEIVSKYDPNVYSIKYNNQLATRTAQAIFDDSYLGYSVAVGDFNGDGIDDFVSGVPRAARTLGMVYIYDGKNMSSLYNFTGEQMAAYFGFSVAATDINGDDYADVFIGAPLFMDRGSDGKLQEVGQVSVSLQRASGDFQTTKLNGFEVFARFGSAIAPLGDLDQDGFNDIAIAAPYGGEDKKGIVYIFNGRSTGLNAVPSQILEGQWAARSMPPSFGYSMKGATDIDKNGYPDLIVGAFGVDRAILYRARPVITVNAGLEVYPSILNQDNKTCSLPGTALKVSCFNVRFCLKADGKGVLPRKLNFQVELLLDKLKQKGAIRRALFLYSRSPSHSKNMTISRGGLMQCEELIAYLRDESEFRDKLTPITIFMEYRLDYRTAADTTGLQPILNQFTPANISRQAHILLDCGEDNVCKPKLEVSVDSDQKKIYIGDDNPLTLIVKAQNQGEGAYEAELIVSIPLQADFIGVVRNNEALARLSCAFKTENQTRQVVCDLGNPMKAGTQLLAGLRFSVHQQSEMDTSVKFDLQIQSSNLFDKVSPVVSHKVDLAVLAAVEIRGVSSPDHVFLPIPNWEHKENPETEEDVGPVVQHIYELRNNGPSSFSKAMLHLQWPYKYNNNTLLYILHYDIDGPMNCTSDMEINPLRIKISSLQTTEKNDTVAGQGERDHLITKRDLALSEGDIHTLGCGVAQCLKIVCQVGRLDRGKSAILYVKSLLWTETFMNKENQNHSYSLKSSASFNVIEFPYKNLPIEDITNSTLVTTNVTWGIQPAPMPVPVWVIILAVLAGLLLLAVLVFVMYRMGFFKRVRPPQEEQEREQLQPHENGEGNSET
T1 sequence (P05106 27-788, form in doubt, chain 2 of 2): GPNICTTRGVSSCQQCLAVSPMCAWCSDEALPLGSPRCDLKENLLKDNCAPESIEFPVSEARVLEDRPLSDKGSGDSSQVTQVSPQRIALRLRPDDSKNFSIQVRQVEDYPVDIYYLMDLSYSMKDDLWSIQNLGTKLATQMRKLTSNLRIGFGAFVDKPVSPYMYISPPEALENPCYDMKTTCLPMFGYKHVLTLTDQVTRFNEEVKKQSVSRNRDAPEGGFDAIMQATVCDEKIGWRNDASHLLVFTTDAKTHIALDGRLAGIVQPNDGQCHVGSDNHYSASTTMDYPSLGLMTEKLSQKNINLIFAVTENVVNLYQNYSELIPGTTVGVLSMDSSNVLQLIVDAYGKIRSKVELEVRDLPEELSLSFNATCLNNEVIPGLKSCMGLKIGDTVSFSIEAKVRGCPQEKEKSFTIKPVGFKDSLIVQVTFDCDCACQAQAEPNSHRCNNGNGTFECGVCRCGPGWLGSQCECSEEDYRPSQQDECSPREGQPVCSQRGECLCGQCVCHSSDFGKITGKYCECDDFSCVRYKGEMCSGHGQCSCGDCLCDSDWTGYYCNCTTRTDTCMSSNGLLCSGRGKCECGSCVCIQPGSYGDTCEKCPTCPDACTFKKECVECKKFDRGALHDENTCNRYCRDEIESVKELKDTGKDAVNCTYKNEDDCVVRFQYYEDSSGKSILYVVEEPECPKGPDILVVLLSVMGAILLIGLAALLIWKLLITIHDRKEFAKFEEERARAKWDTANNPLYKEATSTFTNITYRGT
pIC50: −log10 of the molar value.

Sample answers from the record:
• YTAECKPQVTRGDVF (Linear synthetic peptide) [peptide 62880, YTAECKPQVTRGDVF (linear, VN-derived amino acid residues 35-49)] = > 7.00
• TDVNGDGRHDL (Linear synthetic peptide) [peptide 62502, TDVNGDGRHDL (linear, αIIb-derived amino acid residues 296-306)] = < 4.00
• GVVRNNEALARLS (Linear synthetic peptide) [peptide 62503, GVVRNNEALARLS (linear, αv-derived amino acid residues 655-667)] = < 4.00

// below: pIC50 requested for another binder
Ask: Request the reported pIC50 associated with TRQVVCDLGNPM (Linear synthetic peptide) [peptide 62411, TRQVVCDLGNPM (linear, αv-derived amino acid residues 676-687)]
Reply: < 4.00
